target.of.assay: PI3K delta (Homo sapiens (Human), UniProt O00329)
Sequence (O00329 other isoform, or with tags, fused parts or gaps linker GGGGGG): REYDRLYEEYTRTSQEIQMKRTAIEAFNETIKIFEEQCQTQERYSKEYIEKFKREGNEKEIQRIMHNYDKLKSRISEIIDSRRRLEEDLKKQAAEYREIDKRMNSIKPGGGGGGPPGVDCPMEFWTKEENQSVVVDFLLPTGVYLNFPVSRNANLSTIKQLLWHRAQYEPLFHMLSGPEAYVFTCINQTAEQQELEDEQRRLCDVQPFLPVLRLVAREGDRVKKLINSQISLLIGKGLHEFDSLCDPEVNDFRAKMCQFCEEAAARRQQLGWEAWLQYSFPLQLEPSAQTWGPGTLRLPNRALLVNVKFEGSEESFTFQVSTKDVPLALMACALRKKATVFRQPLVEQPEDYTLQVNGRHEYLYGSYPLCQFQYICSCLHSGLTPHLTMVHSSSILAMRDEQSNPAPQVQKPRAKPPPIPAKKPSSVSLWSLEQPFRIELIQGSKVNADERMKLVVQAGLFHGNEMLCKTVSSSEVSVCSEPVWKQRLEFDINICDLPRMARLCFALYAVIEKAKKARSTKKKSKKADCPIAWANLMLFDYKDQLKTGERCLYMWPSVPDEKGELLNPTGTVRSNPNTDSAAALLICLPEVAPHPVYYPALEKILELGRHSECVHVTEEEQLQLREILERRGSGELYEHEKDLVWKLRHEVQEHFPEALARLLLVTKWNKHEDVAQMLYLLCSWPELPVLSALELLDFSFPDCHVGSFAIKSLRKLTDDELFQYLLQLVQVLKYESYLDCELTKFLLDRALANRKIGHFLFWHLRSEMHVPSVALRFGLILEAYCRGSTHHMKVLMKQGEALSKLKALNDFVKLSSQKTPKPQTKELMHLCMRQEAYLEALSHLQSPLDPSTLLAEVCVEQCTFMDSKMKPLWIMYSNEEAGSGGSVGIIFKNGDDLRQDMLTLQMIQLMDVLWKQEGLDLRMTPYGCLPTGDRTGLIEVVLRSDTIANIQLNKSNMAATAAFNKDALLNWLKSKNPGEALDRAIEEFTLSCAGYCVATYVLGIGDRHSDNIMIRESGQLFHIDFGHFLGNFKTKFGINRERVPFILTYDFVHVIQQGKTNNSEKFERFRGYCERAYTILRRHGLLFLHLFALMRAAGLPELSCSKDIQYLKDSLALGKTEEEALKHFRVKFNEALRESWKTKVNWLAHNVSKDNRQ
assay.method.text: Enzymatic PI3K delta isoform inhibition (lipid kinase, Kinase-Glo luminescence)
Assay type: biochemical
settings: enzymatic assay
Classification by IC50 follows these ranges: b0 = under 10 nM, b1 = from 10 nM up to 20 nM, b2 = 20 nM and over

{"molecule": "COc1ncc(N2CCc3ncnc(O[C@H]4CCN(C(=O)c5ccc(=O)[nH]c5)C4)c3C2)cc1C [Example 19]", "target.of.assay": "PI3K delta (Homo sapiens (Human), UniProt O00329)", "assigned.class": "b2"}
{"molecule": "COc1ncc(N2CCc3ncnc(O[C@H]4CCN(C(=O)c5oc(C)nc5C)C4)c3C2)cc1C#N [Example 28]", "target.of.assay": "PI3K delta (Homo sapiens (Human), UniProt O00329)", "assigned.class": "b0"}
{"molecule": "COc1ncc(N2CCc3ncnc(O[C@H]4CCN(C(=O)CC5CCOCC5)C4)c3C2)cc1C#N [Example 27]", "target.of.assay": "PI3K delta (Homo sapiens (Human), UniProt O00329)", "assigned.class": "b2"}
{"molecule": "COc1ncc(N2CCc3ncnc(N[C@H]4CCN(C(=O)c5cnco5)C4)c3C2)cc1C [Example 78]", "target.of.assay": "PI3K delta (Homo sapiens (Human), UniProt O00329)", "assigned.class": "b1"}
{"molecule": "COc1ncc(N2CCc3ncnc(O[C@H]4CCN(C(=O)c5oc(C)nc5C)C4)c3C2)cc1C [Example 10]", "target.of.assay": "PI3K delta (Homo sapiens (Human), UniProt O00329)", "assigned.class": "b0"}
{"molecule": "COc1ncc(N2CCc3ncnc(O[C@H]4CCN(C(=O)N5CCN(C)CC5)C4)c3C2)cc1C(F)(F)F [Example 85]", "target.of.assay": "PI3K delta (Homo sapiens (Human), UniProt O00329)", "assigned.class": "b2"}
{"molecule": "N#Cc1cc(N2CCc3ncnc(O[C@H]4CCN(C(=O)C5CCOCC5)C4)c3C2)cnc1N [Example 6]", "target.of.assay": "PI3K delta (Homo sapiens (Human), UniProt O00329)", "assigned.class": "b2"}
{"molecule": "COc1ncc(N2CCc3ncnc(O[C@H]4CCN(c5ccccn5)C4)c3C2)cc1C(F)(F)F [Example 65]", "target.of.assay": "PI3K delta (Homo sapiens (Human), UniProt O00329)", "assigned.class": "b2"}
{"molecule": "COc1ncc(N2CCc3ncnc(O[C@H]4CCN(C(=O)C5CCOCC5)C4)c3C2)cn1 [Example 59]", "target.of.assay": "PI3K delta (Homo sapiens (Human), UniProt O00329)", "assigned.class": "b2"}
{"molecule": "COc1ncc(N2CCc3ncnc(O[C@H]4CCN(C(=O)c5cncn5C)C4)c3C2)cc1C(F)(F)F [Example 93]", "target.of.assay": "PI3K delta (Homo sapiens (Human), UniProt O00329)", "assigned.class": "b2"}
{"molecule": "COc1ccc(N2CCc3ncnc(O[C@H]4CCN(C(=O)C5CCOCC5)C4)c3C2)cn1 [Example 95]", "target.of.assay": "PI3K delta (Homo sapiens (Human), UniProt O00329)", "assigned.class": "b2"}
{"molecule": "COc1ncc(N2CCc3ncnc(O[C@H]4CCN(C(=O)C5CCOCC5)C4)c3C2)cc1Cl [Example 56]", "target.of.assay": "PI3K delta (Homo sapiens (Human), UniProt O00329)", "assigned.class": "b1"}
{"molecule": "COc1ncc(N2CCc3ncnc(N[C@H]4CCN(C(=O)C5CCN(C(C)=O)CC5)C4)c3C2)cc1C(F)(F)F [Example 70]", "target.of.assay": "PI3K delta (Homo sapiens (Human), UniProt O00329)", "assigned.class": "b0"}
{"molecule": "COc1cc(N2CCc3ncnc(O[C@H]4CCN(C(=O)c5oc(C)nc5C)C4)c3C2)cnc1OC [Example 25]", "target.of.assay": "PI3K delta (Homo sapiens (Human), UniProt O00329)", "assigned.class": "b2"}
{"molecule": "COc1ncc(N2CCc3ncnc(O[C@H]4CCN(C(=O)C5CCOCC5)C4)c3C2)cc1C(F)(F)F [Example 61]", "target.of.assay": "PI3K delta (Homo sapiens (Human), UniProt O00329)", "assigned.class": "b1"}
{"molecule": "COc1ncc(N2CCc3ncnc(O[C@H]4CCN(C(=O)c5ccno5)C4)c3C2)cc1C [Example 34]", "target.of.assay": "PI3K delta (Homo sapiens (Human), UniProt O00329)", "assigned.class": "b1"}
{"molecule": "COc1ncc(N2CCc3ncnc(N[C@H]4CCN(C(=O)C5CCOCC5)C4)c3C2)cc1C(F)(F)F [Example 68]", "target.of.assay": "PI3K delta (Homo sapiens (Human), UniProt O00329)", "assigned.class": "b0"}
{"molecule": "COc1ncc(N2CCc3ncnc(O[C@H]4CCN(C(=O)c5cocn5)C4)c3C2)cc1C(F)(F)F [Example 91]", "target.of.assay": "PI3K delta (Homo sapiens (Human), UniProt O00329)", "assigned.class": "b1"}
{"molecule": "COc1cc(N2CCc3ncnc(O[C@H]4CCN(C(=O)C5CCC(F)(F)CC5)C4)c3C2)cnc1OC [Example 26]", "target.of.assay": "PI3K delta (Homo sapiens (Human), UniProt O00329)", "assigned.class": "b2"}
{"molecule": "COc1ncc(N2CCc3ncnc(O[C@H]4CCN(C(=O)C5CCOCC5)C4)c3C2)cc1C#N [Example 3]", "target.of.assay": "PI3K delta (Homo sapiens (Human), UniProt O00329)", "assigned.class": "b1"}
{"molecule": "COc1ncc(N2CCc3ncnc(O[C@H]4CCN(C(=O)c5cscn5)C4)c3C2)cc1C(F)(F)F [Example 55]", "target.of.assay": "PI3K delta (Homo sapiens (Human), UniProt O00329)", "assigned.class": "b0"}
{"molecule": "O=C(C1CCOCC1)N1CC[C@H](Oc2ncnc3c2CN(c2cnc4ccccc4c2)CC3)C1 [Example 60]", "target.of.assay": "PI3K delta (Homo sapiens (Human), UniProt O00329)", "assigned.class": "b2"}
{"molecule": "COc1ncc(N2CCc3ncnc(O[C@H]4CCN(C(=O)c5nnc(C)o5)C4)c3C2)cc1C(F)(F)F [Example 51]", "target.of.assay": "PI3K delta (Homo sapiens (Human), UniProt O00329)", "assigned.class": "b2"}
{"molecule": "COc1ncc(N2CCc3ncnc(OC4CN(C(=O)C5CCOCC5)C4)c3C2)cc1C(F)(F)F [Example 58]", "target.of.assay": "PI3K delta (Homo sapiens (Human), UniProt O00329)", "assigned.class": "b2"}
{"molecule": "COc1ncc(N2CCc3ncnc(N[C@H]4CCN(C(=O)[C@H]5CC[C@@H](OC)CC5)C4)c3C2)cc1C(F)(F)F (single isomer, unassigned) [Example 73]", "target.of.assay": "PI3K delta (Homo sapiens (Human), UniProt O00329)", "assigned.class": "b0"}
{"molecule": "COc1ncc(N2CCc3ncnc(O[C@H]4CCN(C(=O)c5coc(C)n5)C4)c3C2)cc1C [Example 14]", "target.of.assay": "PI3K delta (Homo sapiens (Human), UniProt O00329)", "assigned.class": "b1"}
{"molecule": "COc1ncc(N2CCc3ncnc(O[C@H]4CCN(C(=O)N5CCN(C(C)=O)CC5)C4)c3C2)cc1C(F)(F)F [Example 89]", "target.of.assay": "PI3K delta (Homo sapiens (Human), UniProt O00329)", "assigned.class": "b2"}
{"molecule": "COc1ncc(N2CCc3ncnc(O[C@H]4CCN(C(=O)c5cocn5)C4)c3C2)cc1C [Example 16]", "target.of.assay": "PI3K delta (Homo sapiens (Human), UniProt O00329)", "assigned.class": "b1"}
